src = patent EP4714976A1

Readings of kon for the listed binders
systemTested: T1, human FGFR2b (Kaixia Biotechnology, catalog number FGR-HM1BB) (human, UniProt P21802-3 22-378)
T1 construct: extracellular domain; bought; also called hFGFR2b; human FGFR2b protein
T1 sequence (P21802 other isoform, or with tags, fused parts or gaps): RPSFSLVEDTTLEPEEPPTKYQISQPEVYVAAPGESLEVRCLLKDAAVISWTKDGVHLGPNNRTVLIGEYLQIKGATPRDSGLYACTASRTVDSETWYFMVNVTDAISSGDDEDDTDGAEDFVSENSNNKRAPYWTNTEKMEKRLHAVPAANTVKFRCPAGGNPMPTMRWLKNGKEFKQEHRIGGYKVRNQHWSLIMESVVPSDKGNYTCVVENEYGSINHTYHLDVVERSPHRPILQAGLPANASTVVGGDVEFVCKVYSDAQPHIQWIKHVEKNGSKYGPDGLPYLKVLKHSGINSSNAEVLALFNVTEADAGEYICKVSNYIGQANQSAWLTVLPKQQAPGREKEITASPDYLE
testSummary: BLI, antibody on AHC2 sensor
observable: kon (M⁻¹ s⁻¹)

3C7-VH1-VL2 (antibody, human IgG1, kappa, V domains shown, humanized IgG1) VH: QVQLVQSGAEVKKPGASVKVSCKASGYIFTNYYIHWVRQAPGQGLEWMGAIYPDNGDTSYNQRFKVRATLTADTSTSTVYMELSSLRSEDTAVYYCARAFTYWGQGTTVTVSS VL: DIQMTQSPSSLSASVGDRVTITCGASENIYGALNWYQRKPGKAPKLLIYGATNLADGVPSRFSGSGSGTDYTLTISSLQPEDFATYYCQNVLSTPYTFGGGTKLEIKR ... 425000
3H9-VH1-VL0 (antibody, human IgG1, kappa, V domains shown, humanized IgG1) VH: QVQLVQSGAEVKKPGASVKVSCKASGYTFTFYNMHWVRQAPGQGLEWIGLIYPDNGDTSYNQKFKGRATLTADTSTSTVYMELSSLRSEDTAVYYCARGGLDYWGQGTTVTVSS VL: DIQMTQSPSSLSASVGDRVTITCRASENIYSNLAWYQQKPGKAPKLLIYAATNLADGVPSRFSGSGSGTDFTLTISSLQPEDFATYYCQHFWGTPYTFGGGTKVEIKR ... 234000
3C7-VH2-VL2 (antibody, human IgG1, kappa, V domains shown, humanized IgG1) VH: QVQLVQSGAEVKKPGASVKVSCKASGYIFRNYYIHWVRQAPGQGLEWMGAIYPDNGDTSYNQRFKVRATLTADTSTSTVYMELSSLRSEDTAVYYCARAFTYWGQGTTVTVSS VL: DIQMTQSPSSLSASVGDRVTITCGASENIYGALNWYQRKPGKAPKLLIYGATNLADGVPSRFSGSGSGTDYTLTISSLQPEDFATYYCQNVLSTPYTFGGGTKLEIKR ... 435000
